Assay: Cmax in CD-1 mouse xenografted with human OVCAR-3 cells at 100 mg/kg, po by LC-MS/MS analysis
Type: ADME, organism-based
Set-up: dose 100 mg/kg, route po
Conditions: in vivo
readoutName: Cmax (µM)
State just the number; it will be interpreted in µM.

Any idea what Cmax was measured for CC(C)(C)NS(=O)(=O)c1cccc(NC(=O)c2ncc(NS(C)(=O)=O)nc2N2CCC3(CC2)CC3)n1 ? 6.1

====

Target: Kinesin-like protein KIF18A (Homo sapiens, UniProt Q8NI77)
Sequence (Q8NI77 whole entry): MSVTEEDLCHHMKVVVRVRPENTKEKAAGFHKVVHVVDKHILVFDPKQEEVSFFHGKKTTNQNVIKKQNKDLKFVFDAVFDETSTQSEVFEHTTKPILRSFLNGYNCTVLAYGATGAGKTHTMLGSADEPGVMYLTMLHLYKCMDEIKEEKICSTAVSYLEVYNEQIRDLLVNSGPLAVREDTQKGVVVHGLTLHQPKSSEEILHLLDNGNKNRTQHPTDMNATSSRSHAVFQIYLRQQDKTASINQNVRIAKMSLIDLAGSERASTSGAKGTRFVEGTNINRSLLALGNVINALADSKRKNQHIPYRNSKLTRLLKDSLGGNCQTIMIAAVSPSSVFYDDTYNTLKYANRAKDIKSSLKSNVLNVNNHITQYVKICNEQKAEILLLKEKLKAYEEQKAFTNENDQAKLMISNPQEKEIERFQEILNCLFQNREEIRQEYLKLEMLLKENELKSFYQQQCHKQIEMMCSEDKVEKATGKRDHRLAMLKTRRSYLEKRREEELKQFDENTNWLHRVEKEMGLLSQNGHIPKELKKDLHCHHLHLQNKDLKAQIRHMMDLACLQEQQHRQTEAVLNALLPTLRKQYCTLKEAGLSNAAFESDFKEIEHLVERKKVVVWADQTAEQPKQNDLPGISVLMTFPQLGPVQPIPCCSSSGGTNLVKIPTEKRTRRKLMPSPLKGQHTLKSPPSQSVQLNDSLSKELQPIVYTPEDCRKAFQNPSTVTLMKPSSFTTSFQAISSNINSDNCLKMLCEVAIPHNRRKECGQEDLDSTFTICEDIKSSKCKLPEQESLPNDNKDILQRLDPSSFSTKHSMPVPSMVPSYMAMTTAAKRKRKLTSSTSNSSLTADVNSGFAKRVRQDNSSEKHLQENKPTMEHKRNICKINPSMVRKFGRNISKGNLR
Assay: Inhibition of recombinant His-tagged human KIF18A (1 to 467 residues) expressed in Trichoplusia ni insect cells assessed as inhibition of microtubule-stimulated ATPase activity preincubated for 30 mins followed by ATP addition and further incubated for 15 mins by ADP-Glo reagent based assay
Set-up: species or system Insect cell
Returns: string. Value is Met if measured IC50 is below 90 nM, and Not met if it is greater than or equal to it.

- chemSmiles: "O=C(Nc1cccc(S(=O)(=O)C2CCCC2)c1)c1cccnc1N1CCC2(CC1)CC2"
  labelValue: "Not met"
- chemSmiles: "O=C(Nc1cccc(S(=O)(=O)NC2CC2)c1)c1cccnc1N1CCC2(CC1)CC2"
  labelValue: "Not met"
- chemSmiles: "O=C(Nc1cccc(C2(C(F)(F)F)N=N2)c1)c1ccc(NS(=O)(=O)CCO)nc1N1CCC2(CC1)CC2"
  labelValue: "Met"
- chemSmiles: "CC(C)(C)NS(=O)(=O)c1cccc(NC(=O)c2ccc(NC(C)(C)CO)nc2N2CCC3(CC2)CC3)n1"
  labelValue: "Met"
- chemSmiles: "O=C(Nc1cccc(S(=O)(=O)C2CCCC2)c1)c1cccnc1N1CCCCC1"
  labelValue: "Not met"

Turning now to a further molecule:
Find out if reported IC50 for CC(C)(CO)Nc1ccc(C(=O)Nc2cccc(S(=O)(=O)NC3CCCC3)n2)c(N2CCC3(CC2)CC3)c1 is less than 90 nM Met

Reference source: ChEMBL document CHEMBL5223091
